# assay-target: MELK (Homo sapiens, UniProt Q14680)
# Sequence (Q14680 whole entry, looked up): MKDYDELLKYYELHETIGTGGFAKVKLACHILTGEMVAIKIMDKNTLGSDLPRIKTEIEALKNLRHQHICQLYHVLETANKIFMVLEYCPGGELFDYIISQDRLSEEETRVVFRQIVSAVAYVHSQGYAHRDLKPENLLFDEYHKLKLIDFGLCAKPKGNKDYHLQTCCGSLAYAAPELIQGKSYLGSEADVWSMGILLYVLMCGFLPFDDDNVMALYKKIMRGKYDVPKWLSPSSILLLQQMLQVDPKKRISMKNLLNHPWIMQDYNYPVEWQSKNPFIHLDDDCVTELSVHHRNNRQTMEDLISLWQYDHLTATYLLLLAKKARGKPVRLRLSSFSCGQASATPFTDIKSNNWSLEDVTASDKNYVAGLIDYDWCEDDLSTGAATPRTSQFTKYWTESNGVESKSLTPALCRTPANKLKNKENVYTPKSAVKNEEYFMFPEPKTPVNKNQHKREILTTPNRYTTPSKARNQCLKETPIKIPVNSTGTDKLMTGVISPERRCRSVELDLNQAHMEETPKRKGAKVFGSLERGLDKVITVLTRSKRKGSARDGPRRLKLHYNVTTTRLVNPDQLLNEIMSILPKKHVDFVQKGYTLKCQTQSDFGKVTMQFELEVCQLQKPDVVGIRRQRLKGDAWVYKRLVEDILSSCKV
# method-notes: Kinase assay: MELK activity, phosphorylation of FITC-labeled histone H3 peptide measured by IMAP fluorescence polarization
# Assay type: biochemical
# particulars: MELK kinase assay, IMAP fluorescence polarization, 50 micro-M ATP; read-out: IC50 (μM) (kinase assay)
Where a name gives a salt, the structure may show the parent alone.
Decision: IC50 beneath 0.02 µM gives true; IC50 meeting or exceeding 0.02 µM gives false.

CC(=O)c1cnc2ccc(-c3cc(F)c(O)c(Cl)c3)cc2c1Nc1cccc(CCN2CCN(C)CC2)c1 [Example 830] = true
CC(=O)c1cnc2ccc(-c3cc(Cl)c(O)c(Cl)c3)cc2c1Nc1cnc(C)c(CCN2CCCC2)c1 [Example 871] = true
CC(=O)c1cnc2ccc(-c3cc(F)c(O)c(Cl)c3)cc2c1N[C@H]1CC[C@H](NC(=O)C(N)C(C)C)CC1 (stereo partly shown) [Example 907] = true
CC(=O)c1cnc2ccc(-c3cc(F)c(O)c(Cl)c3)cc2c1NC1CCC(C(=O)N2CCN(C)CC2)CC1 (stereo not shown) [Example 849, hydrochloride] = true
CC(=O)c1cnc2ccc(-c3ccc(O)cc3)cc2c1N[C@H]1CC[C@H](CN(C)C)CC1 [Example 935, dihydrochloride] = false
CN(C)CCN1CCC(Nc2c(C(=O)C3CC3)cnc3ccc(-c4cc(F)c(O)c(Cl)c4)cc23)CC1 [Example 822] = true

Consider the additional compound presented here.
Determine whether this compound shows IC50 lower than 0.02 µM (ties excluded): CC(=O)c1cnc2ccc(-c3cc(Cl)c(O)c(Cl)c3)cc2c1Nc1cc(CCN2CCCC2)cnc1C [Example 897] false
